- MEASUREMENT_TARGET: V1aR (Homo sapiens, UniProt P37288)
- Sequence (P37288 whole entry): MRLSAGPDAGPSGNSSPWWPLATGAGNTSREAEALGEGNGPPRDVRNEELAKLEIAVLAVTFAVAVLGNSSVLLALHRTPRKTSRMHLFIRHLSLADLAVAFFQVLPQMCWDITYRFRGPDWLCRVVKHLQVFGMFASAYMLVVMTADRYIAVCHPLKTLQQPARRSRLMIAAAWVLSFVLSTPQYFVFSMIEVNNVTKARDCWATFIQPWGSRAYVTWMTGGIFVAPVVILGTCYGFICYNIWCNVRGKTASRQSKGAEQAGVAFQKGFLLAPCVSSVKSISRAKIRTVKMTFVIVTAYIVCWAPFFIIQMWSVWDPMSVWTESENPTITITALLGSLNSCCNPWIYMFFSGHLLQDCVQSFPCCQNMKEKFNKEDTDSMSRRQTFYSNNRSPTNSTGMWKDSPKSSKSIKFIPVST
- PROTOCOL_DESCRIPTION: radioligand displacement
pKi: −log10 of the molar value. Bridge positions count the residues as written; N and C are the ends. Square brackets hold non-standard residues; d marks the D form. Ends that are not written are not given here.
PROPERTY: pKi

- CLITNCP[dR]G-NH2 (disulfide 1-6 (inferred)) [[D-Arg8]-inotocin]: 8.89
